Quick list: IC50 per entry.
Target: recombinant human BACE1 (rhBACE1) (human, UniProt P56817 22-457, limits assumed)
Sequence (P56817 22-457 limits assumed): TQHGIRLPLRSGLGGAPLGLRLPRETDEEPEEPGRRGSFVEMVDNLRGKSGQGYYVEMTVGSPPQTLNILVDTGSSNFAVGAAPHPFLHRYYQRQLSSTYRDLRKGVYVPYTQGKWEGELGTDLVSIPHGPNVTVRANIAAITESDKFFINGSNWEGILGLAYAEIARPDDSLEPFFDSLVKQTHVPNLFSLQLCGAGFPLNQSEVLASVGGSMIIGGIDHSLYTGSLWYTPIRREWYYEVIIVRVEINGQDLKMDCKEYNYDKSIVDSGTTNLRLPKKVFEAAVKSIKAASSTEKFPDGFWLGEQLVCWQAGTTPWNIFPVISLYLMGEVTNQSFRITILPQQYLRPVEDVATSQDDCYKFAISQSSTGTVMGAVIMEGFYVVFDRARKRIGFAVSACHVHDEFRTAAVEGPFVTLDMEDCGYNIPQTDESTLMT
Assay: FP competition binding; 12 nM rhBACE1, competitor probe 5-TAMRA-BACE020
Positions of bridges follow the written chain, without caps; N, C: chain ends.
# number only, unit nM dropped from output

>>> endpoint_value("Ac-NEESMFCRLLGIGCG-NH2 (disulfide 7-14 (inferred), also called BACE020 Tyr6 to Phe) [BACE055]")
27
>>> endpoint_value("Ac-NEEAMYCRLLGIGCG-NH2 (disulfide 7-14 (inferred), also called BACE020 Ser4 to Ala) [BACE045]")
2340

Kindly consider the entry below.
Task: Using the record for Ac-SMYCRLLGIGCG-NH2 (disulfide 4-11 (inferred), also called BACE31) [BACE031] , report its IC50.
Output: 2600
